System: HOP-18 NSCLC
EXPERIMENT NOTES: NCI tumour cell line growth inhibition, 48 h
Measured TGI of individual entries

*Q* Can you share its TGI? I mean this compound: CCOC(=O)C1SC(=Nc2ccc(Cl)cc2Cl)N=C1C (stereo unspecified)
*A* > 100 µM

*Q* Can you share its TGI? I mean this compound: "CC[PH+](CC)CC.CC[PH+](CC)CC.[Au]"
*A* 22.1 µM

*Q* Can you share its TGI? I mean this compound: "C/C(=N/O)c1sc(-c2nc(C)c(/C(C)=N\O)s2)nc1C"
*A* > 100 µM

*Q* Can you share its TGI? I mean this compound: "Cc1ccc(Sc2ccccc2N)cc1"
*A* > 100 µM

*Q* Can you share its TGI? I mean this compound: "O=C(O)CCN(CCCN(CCC(=O)O)CCC(=O)O)CCC(=O)O"
*A* > 100 µM

Others:
*Q* Can you share its TGI? I mean this compound: CC(=O)NC1COC(COC(=O)CCCCCCCCCCNC(=O)c2ccc([N+](=O)[O-])c3c(=O)c4ccccc4[nH]c23)C(O)C1OC(C)C(=O)NC(C(=O)NC(CCC(N)=O)C(=O)OCc1ccccc1)C(C)C (stereo unspecified)
*A* 43.9 µM

###

Test system: BT-549 breast
EXPERIMENT NOTES: NCI tumour cell line growth inhibition, 48 h
RECORDED ENDPOINT: GI50

*Q* Can you share its GI50? I mean this compound: "CCCCCCCCCCCCCCCCN(CC)CC"
*A* 1870 nM

Others:
*Q* Can you share its GI50? I mean this compound: "Cn1c(-c2c(N)n(Cc3ccc(F)cc3)c3nc(C#N)c(C#N)nc23)nc2ccccc21"
*A* 2790 nM

*Q* Can you share its GI50? I mean this compound: "O=S(=O)(NCCCNc1cc(-c2cn(-c3ccccc3)nc2-c2cccc(O)c2)ccn1)c1ccc(Br)cc1"
*A* 1680 nM

*Q* Can you share its GI50? I mean this compound: "COC(=O)CNc1nc(N(C)O)nc(N(C)O)n1"
*A* 13800 nM

*Q* Can you share its GI50? I mean this compound: "NC(N)=N/N=C/c1c(-c2cccnc2)nc2sc(Cl)cn12"
*A* 16300 nM

*Q* Can you share its GI50? I mean this compound: "Cn1c(=O)c(Oc2ccc(F)cc2F)cc2cnc(NC3CCOCC3)nc21"
*A* > 25000 nM

###

System: MDA-MB-231 breast
EXPERIMENT NOTES: NCI tumour cell line growth inhibition, 48 h
Measured TGI of individual entries

Recorded TGI, per entry:
*Q* Can you share its TGI? I mean this compound: Cc1cn(Cc2cn(CC3OC(n4cc(C)c(=O)[nH]c4=O)CC3O)nn2)c(=O)[nH]c1=O (stereo not drawn)
*A* > 100 µM

*Q* Can you share its TGI? I mean this compound: CC1Cc2ccccc2N1C(=O)Cc1nc(N2CCOCC2)cc(=O)[nH]1 (stereo not drawn)
*A* > 100 µM

*Q* Can you share its TGI? I mean this compound: "O=c1[nH]c(=O)n(CCOCP(=O)(O)O)nc1Br"
*A* > 100 µM

Others:
*Q* Can you share its TGI? I mean this compound: "COc1cc(CCC(=O)NC[C@@H](O)c2ccccc2)ccc1O"
*A* > 100 µM

*Q* Can you share its TGI? I mean this compound: "Cc1c2c(nn1-c1ccc(S(=O)(=O)NC(=S)NC(=O)c3ccccc3)cc1)-c1ccccc1CC2"
*A* > 100 µM

*Q* Can you share its TGI? I mean this compound: O=C1CS(=O)(=O)C(c2cccc(Oc3ccccc3)c2)N1C1CC1 (stereo not drawn)
*A* > 100 µM

*Q* Can you share its TGI? I mean this compound: "Cc1ccc(C(=O)N/N=C(\N=Nc2ccccc2Cl)c2ccc(N(C)C)cc2)cc1"
*A* > 100 µM
